Values compiled from the supplement of paper PMC9112550.

The entries below are paired with their reported shrunken log2 fold change.
- Tested on: Escherichia coli TOP10
- assay: shrunken log2 fold change of peptide-encoding DNA abundance (4.5 h post-induction vs induction); higher = less antimicrobial activity (less host growth inhibition)
- conditions-used: time post-induction: 4.5 h; library: site-saturation at positions 5, 18, 19, 20
parameter: shrunken log2 fold change

{"columns": ["seq-string", "numeric-readout"],
 "data": [
  ["RRIRMRPPRLPRPRPRPADVPRP", 0.0241],
  ["RRIRRRPPRLPRPRPRPSLLPRP", 0.17],
  ["RRIRERPPRLPRPRPRPLPMPRP", 0.187],
  ["RRIRLRPPRLPRPRPRPFWWPRP", 0.483],
  ["RRIRSRPPRLPRPRPRPWCCPRP", -0.544],
  ["RRIRKRPPRLPRPRPRPMMCPRP", 0.0781],
  ["RRIRVRPPRLPRPRPRPHGGPRP", -0.0243],
  ["RRIRMRPPRLPRPRPRPGMVPRP", 0.263]
]}

* * *

- Test system: Escherichia coli TOP10
- assay: shrunken log2 fold change of peptide-encoding DNA abundance (4.5 h post-induction vs induction); higher = less antimicrobial activity (less host growth inhibition)
- conditions-used: time post-induction: 4.5 h; library: site-saturation at positions 5, 18, 19, 20
Entry flag: 1 (yes) if shrunken log2 fold change reaches -0.06; 0 (no) if it does not.

{"columns": ["seq-string", "classification"],
 "data": [
  ["RRIRNRPPRLPRPRPRPTCTPRP", "0 (no)"],
  ["RRIRQRPPRLPRPRPRPWGYPRP", "0 (no)"],
  ["RRIRYRPPRLPRPRPRPSVMPRP", "0 (no)"],
  ["RRIRTRPPRLPRPRPRPGSFPRP", "1 (yes)"],
  ["RRIRYRPPRLPRPRPRPSIDPRP", "0 (no)"],
  ["RRIRYRPPRLPRPRPRPYPLPRP", "0 (no)"],
  ["RRIRGRPPRLPRPRPRPRQIPRP", "1 (yes)"],
  ["RRIRKRPPRLPRPRPRPGFPPRP", "1 (yes)"],
  ["RRIRKRPPRLPRPRPRPLNAPRP", "1 (yes)"],
  ["RRIRRRPPRLPRPRPRPEQTPRP", "1 (yes)"],
  ["RRIRDRPPRLPRPRPRPCHEPRP", "1 (yes)"],
  ["RRIRIRPPRLPRPRPRPPMGPRP", "1 (yes)"],
  ["RRIRLRPPRLPRPRPRPNQQPRP", "1 (yes)"],
  ["RRIRRRPPRLPRPRPRPCHDPRP", "0 (no)"],
  ["RRIRERPPRLPRPRPRPHSGPRP", "0 (no)"]
]}

* * *

- Tested on: Escherichia coli TOP10;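 note: peptides expressed intracellularly from a pBAD plasmid library in pooled LB shake-flask culture, induced with 0.3% L-arabinose, DNA abundance read by NGS, three biological replicates, DESeq2 with apeglm shrinkage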
- assay: shrunken log2 fold change of peptide-encoding DNA abundance (4.5 h post-induction vs induction); higher = less antimicrobial activity (less host growth inhibition)
- conditions-used: time post-induction: 4.5 h; library: site-saturation at positions 5, 18, 19, 20
The threshold is inclusive: shrunken log2 fold change of exactly -0.007 counts as met; values below receive not met.

{"columns": ["seq-string", "classification"],
 "data": [
  ["RRIRWRPPRLPRPRPRPKLEPRP", "met"],
  ["RRIRRRPPRLPRPRPRPSVIPRP", "met"],
  ["RRIRVRPPRLPRPRPRPERTPRP", "not met"],
  ["RRIRWRPPRLPRPRPRPMNHPRP", "not met"],
  ["RRIRFRPPRLPRPRPRPVKVPRP", "not met"],
  ["RRIRKRPPRLPRPRPRPHVIPRP", "not met"],
  ["RRIRYRPPRLPRPRPRPDGAPRP", "not met"],
  ["RRIRERPPRLPRPRPRPACRPRP", "met"]
]}
